Reported inhibition values are given for each entry in this list.
molecular target: Protein deacetylase HDAC6 (Homo sapiens) (UniProt Q9UBN7); conditions: at 10 µM
Sequence (Q9UBN7 whole entry): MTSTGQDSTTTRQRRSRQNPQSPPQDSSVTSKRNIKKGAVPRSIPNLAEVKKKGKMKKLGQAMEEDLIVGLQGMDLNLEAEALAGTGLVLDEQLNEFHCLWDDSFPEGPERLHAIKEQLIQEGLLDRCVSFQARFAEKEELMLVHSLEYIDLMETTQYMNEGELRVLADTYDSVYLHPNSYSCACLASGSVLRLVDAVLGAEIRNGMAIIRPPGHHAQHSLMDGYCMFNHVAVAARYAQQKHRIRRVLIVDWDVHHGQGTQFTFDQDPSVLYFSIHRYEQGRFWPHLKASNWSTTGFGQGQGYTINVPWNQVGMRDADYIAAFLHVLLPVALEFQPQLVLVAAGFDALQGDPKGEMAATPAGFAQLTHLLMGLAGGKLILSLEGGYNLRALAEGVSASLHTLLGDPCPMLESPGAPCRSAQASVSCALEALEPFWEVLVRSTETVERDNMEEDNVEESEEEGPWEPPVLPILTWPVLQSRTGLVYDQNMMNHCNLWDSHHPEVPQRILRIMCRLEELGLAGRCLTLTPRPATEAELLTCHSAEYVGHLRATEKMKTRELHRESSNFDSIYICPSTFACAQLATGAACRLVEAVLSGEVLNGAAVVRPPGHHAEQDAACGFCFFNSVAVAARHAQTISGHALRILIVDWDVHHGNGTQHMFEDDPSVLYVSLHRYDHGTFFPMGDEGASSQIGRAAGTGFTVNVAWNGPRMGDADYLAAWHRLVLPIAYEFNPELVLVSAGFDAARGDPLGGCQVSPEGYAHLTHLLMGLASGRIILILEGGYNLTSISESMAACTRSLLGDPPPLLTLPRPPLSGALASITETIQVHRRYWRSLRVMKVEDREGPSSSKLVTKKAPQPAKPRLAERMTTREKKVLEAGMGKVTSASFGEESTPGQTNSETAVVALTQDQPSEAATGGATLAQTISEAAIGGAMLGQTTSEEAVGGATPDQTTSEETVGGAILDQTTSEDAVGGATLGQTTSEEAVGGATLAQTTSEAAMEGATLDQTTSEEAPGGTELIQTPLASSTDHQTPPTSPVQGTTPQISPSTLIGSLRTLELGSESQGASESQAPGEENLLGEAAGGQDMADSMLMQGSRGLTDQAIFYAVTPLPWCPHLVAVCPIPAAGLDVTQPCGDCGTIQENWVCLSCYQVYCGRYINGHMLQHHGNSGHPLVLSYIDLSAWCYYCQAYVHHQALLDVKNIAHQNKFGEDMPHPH
Out of some 5,600 compounds screened, about 150 (2.7%) showed an effect of 50% or more. The sample holds strong results, similar compounds and a random draw of the others, so the mix is not that of the screen.
PROPERTY_LABEL: inhibition (%)

[[record]]
structure_notation = "Cc1ccc(NC2=CC(=O)c3sc(C)nc3C2=O)cc1"
property_label = "inhibition"
measure_unit = "%"
reported_measurement = 58.6

[[record]]
structure_notation = "Cn1ccc2cc(NC(=O)Nc3cccnc3)ccc21"
property_label = "inhibition"
measure_unit = "%"
reported_measurement = 39.6

[[record]]
structure_notation = "CN(C)Cc1c(C(=O)NCCOc2ccc(C(=O)NO)cc2)oc2ccccc12"
property_label = "inhibition"
measure_unit = "%"
reported_measurement = 97.9

[[record]]
structure_notation = "N[C@@H](C(=O)O)c1ccc(O)c(C(=O)O)c1"
property_label = "inhibition"
measure_unit = "%"
reported_measurement = -2.24

[[record]]
structure_notation = "CCc1nc(C(N)=O)c(Nc2ccc(N3CCC(N4CCN(C)CC4)CC3)c(OC)c2)nc1NC1CCOCC1"
property_label = "inhibition"
measure_unit = "%"
reported_measurement = 0.8

[[record]]
structure_notation = "N[C@H](C(=O)O)c1ccc(O)c(C(=O)O)c1"
property_label = "inhibition"
measure_unit = "%"
reported_measurement = -4.47

[[record]]
structure_notation = "CSc1cc2c(cc1C(F)(F)F)N(C(=O)Nc1cccnc1)CC2"
property_label = "inhibition"
measure_unit = "%"
reported_measurement = 1.32

[[record]]
structure_notation = "CC(=O)Oc1ccccc1C(=O)Nc1ccccc1"
property_label = "inhibition"
measure_unit = "%"
reported_measurement = 24.1

[[record]]
structure_notation = "CCOC(=O)c1cc2ccc(O)cc2oc1=O"
property_label = "inhibition"
measure_unit = "%"
reported_measurement = 86.3

[[record]]
structure_notation = "COc1ccc(C(=O)NCc2ccc(OCCN(C)C)cc2)cc1OC"
property_label = "inhibition"
measure_unit = "%"
reported_measurement = -3.31

[[record]]
structure_notation = "Cc1cc(C)c(N(Cc2ccccc2)S(=O)(=O)c2ccc(OCCNC(=O)c3cc4ccccc4o3)cc2)c(C(=O)NO)c1"
property_label = "inhibition"
measure_unit = "%"
reported_measurement = -0.11

[[record]]
structure_notation = "CCOC(=O)[C@@]1(CCCCCCOc2ccc(Cl)cc2)CO1"
property_label = "inhibition"
measure_unit = "%"
reported_measurement = -2.98

[[record]]
structure_notation = "CC(C)c1ccc2oc3nc(N)c(C(=O)O)cc3c(=O)c2c1"
property_label = "inhibition"
measure_unit = "%"
reported_measurement = 99.5

[[record]]
structure_notation = "CCOc1cccc(NC(=O)c2ccc(N3CCCC3)c(C(F)(F)F)c2)c1"
property_label = "inhibition"
measure_unit = "%"
reported_measurement = 0.15

[[record]]
structure_notation = "Cn1ccc2cc3c(cc21)CCN3C(=O)Nc1cccnc1"
property_label = "inhibition"
measure_unit = "%"
reported_measurement = 69.4

[[record]]
structure_notation = "CCCCOc1ccc(C(=O)CCN2CCCCC2)cc1"
property_label = "inhibition"
measure_unit = "%"
reported_measurement = -4.56


----------
molecular target: Protein deacetylase HDAC6 (Homo sapiens); settings: at 10 µM
Among all 5,600 compounds or so, about 150 (2.7%) showed an effect of 50% or more. What follows is part of a selection rich in strong results, with near analogues and random picks from the rest.
PROPERTY_LABEL: inhibition (%)

[[record]]
structure_notation = "OC[C@H]1NCC[C@@H](O)[C@@H]1O"
system_name = "Protein deacetylase HDAC6 (Homo sapiens)"
property_label = "inhibition"
reported_measurement = -1.49

[[record]]
structure_notation = "CCCCCCCCCCCCCCCC(=O)NCCO"
system_name = "Protein deacetylase HDAC6 (Homo sapiens)"
property_label = "inhibition"
reported_measurement = -0.28

[[record]]
structure_notation = "COc1c(C)cnc(Cn2cc(C#CCC(C)(C)O)c3c(Cl)nc(N)nc32)c1C"
system_name = "Protein deacetylase HDAC6 (Homo sapiens)"
property_label = "inhibition"
reported_measurement = 0.42

[[record]]
structure_notation = "Cc1ccc(CCCO)c(NCc2ccc3nc(NCCCN4CCOCC4)n(Cc4nc(C)ccc4O)c3c2)c1"
system_name = "Protein deacetylase HDAC6 (Homo sapiens)"
property_label = "inhibition"
reported_measurement = -5.63

[[record]]
structure_notation = "O=C(CCCCCCNC(=O)c1cnc(N(c2ccccc2)c2ccccc2)nc1)NO"
system_name = "Protein deacetylase HDAC6 (Homo sapiens)"
property_label = "inhibition"
reported_measurement = 97.5

[[record]]
structure_notation = "O=C(CCNNC(=O)c1ccncc1)NCc1ccccc1"
system_name = "Protein deacetylase HDAC6 (Homo sapiens)"
property_label = "inhibition"
reported_measurement = -3.21

[[record]]
structure_notation = "CCCn1c(=O)c2[nH]c(-c3cnn(Cc4cccc(C(F)(F)F)c4)c3)nc2n(CC)c1=O"
system_name = "Protein deacetylase HDAC6 (Homo sapiens)"
property_label = "inhibition"
reported_measurement = 2.86

[[record]]
structure_notation = "CCN(CC)Cc1ccc(Nc2ccnc3cc(Cl)ccc23)cc1O"
system_name = "Protein deacetylase HDAC6 (Homo sapiens)"
property_label = "inhibition"
reported_measurement = 0.37

[[record]]
structure_notation = "C#C[C@]1(OC(C)=O)CC[C@H]2[C@@H]3CCC4=C/C(=N/O)CC[C@@H]4[C@H]3CC[C@@]21CC"
system_name = "Protein deacetylase HDAC6 (Homo sapiens)"
property_label = "inhibition"
reported_measurement = 5.83

[[record]]
structure_notation = "CC(C)(CC(=O)N1CCCC1)NCC(=O)N1C[C@@H](F)C[C@H]1C#N"
system_name = "Protein deacetylase HDAC6 (Homo sapiens)"
property_label = "inhibition"
reported_measurement = 1.6


The reported numbers originate from ChEMBL document CHEMBL4808148.
